Target: T1, ECD of murine IGSF11, recombinant biotinylated (mouse, UniProt P0C673 23-240)
T1 construct: whole entry named; also called Mouse IGSF11
T1 sequence: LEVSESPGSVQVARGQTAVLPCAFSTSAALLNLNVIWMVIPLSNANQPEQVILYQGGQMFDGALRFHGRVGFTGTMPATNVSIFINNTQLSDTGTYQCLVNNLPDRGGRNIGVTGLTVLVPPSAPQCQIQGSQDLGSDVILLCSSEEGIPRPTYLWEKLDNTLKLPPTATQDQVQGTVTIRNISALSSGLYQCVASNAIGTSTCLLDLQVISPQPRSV
Assay: ELISA RFU 0.5-1.0
The reader will find reported ELISA binding signal (RFU) values listed item by item below.

Sample records with ELISA binding signal (RFU):
BINDER: A-034 (scFv format) (scFv, V domains shown, scFv) VH: QMQLVQSGGGLVKPGGSLRLSCAASGFTFSSYTMNWVRQAPGKGLEWVSSISSIGTYIYYADSVKGRFTISRDNAKNSLYLQMNSLRAEDTAVYYCARVLLSGSYYGYFDSWGQGTLVTVSS VL: QSVLTQPPSVSGAPGQRVTISCTGSSSNIGAGYDVHWYQQLPGTAPKLFIYGNSNRPSGVPDRFSGSKSGTSASLAITGLQAEDEADYYCQSYDSSLSGYVFGTGTKVTVL
ELISA binding signal (RFU): 0.5 to 1 rfu

BINDER: A-010 (scFv format) (scFv, V domains shown, scFv) VH: QVQLVQSGAEVKKPGASVKVSCKASGYTFTSYGISWVRQAPGQGLEWMGWISAYNGNTNYAQKLQGRVTMTTDTSTSTAYMELRSLRSDDTAVYYCARVPAWSGQFDYWGQGTLVTVSS VL: QSALTQPASVSGSPGQSITISCTGSSSDVGGYNYVSWYQQYPGKAPKLMIYDVRSRPSGVSNRFSGSKSGNTASLTISGLQAEDEADYYCTSYTSSNTLVIFGGGTKVTVL
ELISA binding signal (RFU): 0.5 to 1 rfu

Turning to the following binder.
*Q* // fetch ELISA binding signal (RFU) given entry A-012 (scFv format) (scFv, V domains shown, scFv) VH: EVQLLESGGGLIQPGGSLRLSCAVSGFTVSSNYMSWVRQAPGKGLEWVSVIYSGGSTYYADSVKGRFTISRDNSKNTLYLQMNSLRAEDTAVYYCARGNPYYYGDLQVNFDYWGQGTLVTVSS VL: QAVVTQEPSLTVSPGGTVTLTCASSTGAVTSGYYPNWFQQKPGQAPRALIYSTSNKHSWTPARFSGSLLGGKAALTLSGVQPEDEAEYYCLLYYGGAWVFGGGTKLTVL
*A* 0.5 to 1 rfu
